Reported kinase still bound, per cent of control values follow for various compounds
Test system: KIT (human), P10721 [V559D/T670I]
Sequence (P10721 whole entry V559D/T670I, looked up): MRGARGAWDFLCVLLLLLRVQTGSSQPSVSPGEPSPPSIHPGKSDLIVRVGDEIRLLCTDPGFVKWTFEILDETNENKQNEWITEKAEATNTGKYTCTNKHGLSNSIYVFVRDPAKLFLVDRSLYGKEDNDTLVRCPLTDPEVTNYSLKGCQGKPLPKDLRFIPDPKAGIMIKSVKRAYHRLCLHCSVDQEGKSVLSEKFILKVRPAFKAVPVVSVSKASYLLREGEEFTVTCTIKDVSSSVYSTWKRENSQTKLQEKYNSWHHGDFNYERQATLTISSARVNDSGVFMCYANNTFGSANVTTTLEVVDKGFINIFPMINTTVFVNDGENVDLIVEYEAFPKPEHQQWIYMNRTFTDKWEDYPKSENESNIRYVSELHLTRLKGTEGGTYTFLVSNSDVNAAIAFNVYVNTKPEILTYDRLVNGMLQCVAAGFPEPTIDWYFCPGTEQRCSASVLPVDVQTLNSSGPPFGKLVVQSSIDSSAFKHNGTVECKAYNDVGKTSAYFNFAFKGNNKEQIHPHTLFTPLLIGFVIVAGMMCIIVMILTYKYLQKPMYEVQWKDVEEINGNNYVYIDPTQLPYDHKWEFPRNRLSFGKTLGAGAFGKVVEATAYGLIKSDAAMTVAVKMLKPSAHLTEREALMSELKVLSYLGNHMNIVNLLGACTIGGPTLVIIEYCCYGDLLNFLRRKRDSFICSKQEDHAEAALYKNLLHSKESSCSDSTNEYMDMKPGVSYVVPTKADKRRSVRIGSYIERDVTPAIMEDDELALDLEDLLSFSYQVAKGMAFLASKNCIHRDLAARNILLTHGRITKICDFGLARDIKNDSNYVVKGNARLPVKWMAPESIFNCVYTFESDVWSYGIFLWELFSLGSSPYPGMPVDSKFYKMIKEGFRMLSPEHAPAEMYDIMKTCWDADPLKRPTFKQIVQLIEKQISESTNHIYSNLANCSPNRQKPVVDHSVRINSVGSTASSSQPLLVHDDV
Assay notes: KINOMEscan competition binding
Applied conditions: compound 10.0 µM
Report only the number, with the unit % understood.

Sample answers from the record:
C=CC(=O)Nc1ccc(C(=O)c2sc(Nc3ccc(N4CCN(C)CC4)cc3OC)nc2N)cc1 | 59
C=CC(=O)Nc1cccc(Nc2nc(N[C@H]3CC[C@H](N(C)C)CC3)nc3c2ncn3C(C)C)c1 | 86
N#Cc1c(NC(=O)c2cccc3ccccc23)sc2c1CCCC2 | 78
CCN(CCO)CCCOc1ccc2c(Nc3cc(CC(=O)Nc4cccc(F)c4)[nH]n3)ncnc2c1 | 0

// next item, kinase still bound, per cent of control requested
Asked: Param item = `CNC(=O)c1ccc(Nc2cc(Nc3ccccc3S(=O)(=O)C(C)C)c3cc[nH]c3n2)nc1` ; retrieve measured kinase still bound, per cent of control.
Given back: 22

The origin of these recorded values is the kinase profiling compilation of Christmann-Franck et al. (2016).
